Hey, just so you know, these numbers are from patent US9737505B2.

ASSAY NAME: Solubility in aqueous media
Format: physicochemical
APPLIED CONDITIONS: thermodynamic from solid; FeSSIF (Simulated Fed State Intestinal Fluid pH 6.5), 4 hour; read-out: Solubility at 4 hour timepoint
PROPERTY NAME: solubility at 4 h (µg/mL)
Note: unit µg/mL is implicit; provide only the numeric part.

# input Returns the measured solubility at 4 h for the input compound. Input: "O=C(OCOC(=O)[C@H]1CCCN1C(=O)CCCCC(=O)N1CCC[C@@H]1C(=O)OCOC(=O)OC1CCOCC1)OC1CCOCC1"
# output 5000

###

# maps each entry to its pIC50
ASSAY SYSTEM: UniProt P10635
Sequence (P10635 whole entry): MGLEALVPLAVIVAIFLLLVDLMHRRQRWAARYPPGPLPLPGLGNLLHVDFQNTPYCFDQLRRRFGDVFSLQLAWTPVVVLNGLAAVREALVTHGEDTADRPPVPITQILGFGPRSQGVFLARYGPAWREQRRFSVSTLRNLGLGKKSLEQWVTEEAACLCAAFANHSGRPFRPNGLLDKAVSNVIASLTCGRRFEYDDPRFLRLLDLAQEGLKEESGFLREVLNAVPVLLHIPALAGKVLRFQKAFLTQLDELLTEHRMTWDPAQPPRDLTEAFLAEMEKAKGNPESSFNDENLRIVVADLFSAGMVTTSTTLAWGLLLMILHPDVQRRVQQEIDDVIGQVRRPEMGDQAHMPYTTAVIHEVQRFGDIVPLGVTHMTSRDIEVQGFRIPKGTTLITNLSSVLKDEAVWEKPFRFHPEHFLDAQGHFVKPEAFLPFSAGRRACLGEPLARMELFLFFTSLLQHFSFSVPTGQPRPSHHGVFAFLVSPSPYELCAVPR
ASSAY NAME: Cytochrome p450 inhibition assay (bactosomes, fluorogenic substrate MMC)
APPLIED CONDITIONS: recombinant human CYP (Cypex bactosomes)
pIC50: −log10 of the molar value.

COMPOUND	ASSAY SYSTEM	OBSERVED
O=C(OCOC(=O)[C@H]1CCCN1C(=O)CCCCC(=O)N1CCC[C@@H]1C(=O)O)OC1CCOCC1	UniProt P10635	< 4.48

# input Returns the measured pIC50 for the input compound. Input: CC(OC(=O)[C@H]1CCCN1C(=O)CCCCC(=O)N1CCC[C@@H]1C(=O)OC(C)OC(=O)C(C)(C)C)OC(=O)C(C)(C)C (stereo partly drawn) [Comparator Compound, reference compound]
# output < 4.48

# input Returns the measured pIC50 for the input compound. Input: "O=C(OCOC(=O)[C@H]1CCCN1C(=O)CCCCC(=O)N1CCC[C@@H]1C(=O)OCOC(=O)OC1CCOCC1)OC1CCOCC1"
# output < 4.48
